This collection of values is drawn from BindingDB's records for doi:10.1016/j.ejmech.2021.113585.

Hi there, I'd appreciate the recorded pEC50 for every entry that follows.
assay: Agonist activity at RORgammat in C57 mouse CD4+ T cells assessed as induction of Th17 cells differentiation by measuring increase in IL17 production measured after 4 days by flow cytometry analysis
Here pEC50 is given on a logarithmic scale as minus log10 of the concentration in mol/L.

The reported value for CC(=O)N1CCN(c2ccc3c(c2)CCN(S(=O)(=O)N(C)Cc2ccccc2C(F)(F)F)C3)CC1 in terms of pEC50 is 5.95

For record CC(=O)N1CCN(c2ccc3c(c2)CCN(S(=O)(=O)N(C)Cc2ccccc2Cl)C3)CC1 the listed pEC50 is 6.64

# compound CC(=O)N1CCN(c2ccc3c(c2)CCN(S(=O)(=O)N(C)Cc2c(F)cccc2Cl)C3)CC1 ; its pEC50 = 6.66
